# Tested on: Saccharomyces cerevisiae;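 also: PSI is a weighted mean of sequencing reads over stability bins, variants kept only with over 10 reads, mCherry proximal and sfGFP distal, peptide attached via GGGS linker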
# ASSAY METHOD TEXT: protein stability index of tFT-peptide fusion (C-terminal peptide) (PSI (0-1 scale)); higher = more stable (slower turnover)
# RECORDED CONDITIONS: genetic background: cdc34-1; temperature: 37 C

- SEQUENCE: "VCLFSVCLWFVS"
  protein stability index: 0.0838
- SEQUENCE: "YDLRRIGRIGVG"
  protein stability index: 0.316
- SEQUENCE: "SVVVLHVHVRPP"
  protein stability index: 0.618
- SEQUENCE: "WYAGIVFTRVWM"
  protein stability index: 0.54
- SEQUENCE: "PYLSAPLVATLS"
  protein stability index: 0.378
- SEQUENCE: "LFRFSRLFLFVL"
  protein stability index: 0.36
- SEQUENCE: "LVLLRLSSLTIF"
  protein stability index: 0.627
- SEQUENCE: "RYVVVGACIQVV"
  protein stability index: 0.421
- SEQUENCE: "GAVRRWGWVSFV"
  protein stability index: 0.633
- SEQUENCE: "IREYSIRIKRLQ"
  protein stability index: 0.623
- SEQUENCE: "LVGLESCGERAG"
  protein stability index: 0.655
- SEQUENCE: "SFTRYIFFLMFF"
  protein stability index: 0.438
- SEQUENCE: "IIFWMWVIIRVY"
  protein stability index: 0.121
- SEQUENCE: "NASWAFLCYFCV"
  protein stability index: 0.646
- SEQUENCE: "RMCPWVSVRVGV"
  protein stability index: 0.558
- SEQUENCE: "RLWLPLSLVLWV"
  protein stability index: 0.376
- SEQUENCE: "GIKLNVVYILLG"
  protein stability index: 0.486
- SEQUENCE: "SRLLGVKVSLVC"
  protein stability index: 0.518
- SEQUENCE: "VLVRVIYLLVSG"
  protein stability index: 0.276
